molecular target: Proteinase-activated receptor 1 (Homo sapiens); test: Affinity On-target Cellular interaction (Functional cellular assay in HEK cells expressing F2R) EUB0000333a F2R
Sequence (P25116 whole entry): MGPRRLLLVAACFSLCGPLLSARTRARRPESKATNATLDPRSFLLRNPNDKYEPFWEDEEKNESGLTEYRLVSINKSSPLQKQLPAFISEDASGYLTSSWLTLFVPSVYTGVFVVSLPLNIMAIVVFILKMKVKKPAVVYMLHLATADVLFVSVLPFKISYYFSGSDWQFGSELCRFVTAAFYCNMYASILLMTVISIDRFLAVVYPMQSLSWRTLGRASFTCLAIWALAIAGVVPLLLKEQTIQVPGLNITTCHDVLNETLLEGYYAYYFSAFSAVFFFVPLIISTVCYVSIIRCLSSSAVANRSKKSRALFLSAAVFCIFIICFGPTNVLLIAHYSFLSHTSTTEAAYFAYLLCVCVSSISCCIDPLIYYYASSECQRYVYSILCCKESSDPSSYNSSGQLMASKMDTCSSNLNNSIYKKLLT
Property Label: IC50

- Smiles: "Cc1noc([C@H]2C[C@@H](c3ccc(C(F)(F)F)cc3)CN(C(=O)N3CCS(=O)(=O)C3)C2)n1"
  Result: "> 10 µM"

* * *

target: Histone-lysine N-methyltransferase SETD7 (Homo sapiens, UniProt Q8WTS6); assay: Affinity On-target Cellular interaction (Immunoblot (increase in nuclear YAP levels by treatment of MEFs (from Setd7+/+ mice) with 10 µM PFI-2)) EUB0000196bCl SETD7
Property Label: EC50

- Smiles: "O=C([C@@H](Cc1cccc(C(F)(F)F)c1)NS(=O)(=O)c1cc(F)c2c(c1)CCNC2)N1CCCC1"
  Target Of Assay: "Histone-lysine N-methyltransferase SETD7 (Homo sapiens, UniProt Q8WTS6)"
  Property Label: "EC50"
  Result: "< 10 µM"

* * *

molecular target: Serine/threonine-protein kinase PLK1 (Homo sapiens); assay: Affinity On-target Cellular interaction (ELISA (PLK1 phosphorylation of Ser15-p53 in HeLa cells)) EUB0000698a PLK1
pIC50: −log10 of the molar value.

- Molecule: "COc1cc2ncn(-c3cc(OCc4ccccc4C(F)(F)F)c(C(N)=O)s3)c2cc1OC [GW843682X]"
  pIC50: 6.85

* * *

biological target: NADH dehydrogenase [ubiquinone] iron-sulfur protein 2, mitochondrial (Homo sapiens); assay: Affinity On-target Cellular interaction (Cellular activity assay (measurement of ATP levels in presence of complex II substrate succinate in H1299 cells)) EUB0000752a NDUFS2; format: cell-based; parameters: mode of action Inhibitor, recommended concentration 1 uM

- Smiles: "c1ccc2oc(-c3csc(C4CCN(Cc5nc6ncccc6[nH]5)CC4)n3)cc2c1"
  IC50 [nM]: 79

* * *

molecular target: Cystic fibrosis transmembrane conductance regulator (Homo sapiens, UniProt P13569, F508DEL); test: Affinity On-target Cellular interaction (CFTR Restoration Trans-Epithelial Current Clamp (TECC) assay (in HBE cells from F508del CF patients)) EUB0000264b CFTR; format: cell-based; parameters: mode of action Negative control for A-1596586, recommended concentration 1 uM
Sequence (P13569 as listed by the source): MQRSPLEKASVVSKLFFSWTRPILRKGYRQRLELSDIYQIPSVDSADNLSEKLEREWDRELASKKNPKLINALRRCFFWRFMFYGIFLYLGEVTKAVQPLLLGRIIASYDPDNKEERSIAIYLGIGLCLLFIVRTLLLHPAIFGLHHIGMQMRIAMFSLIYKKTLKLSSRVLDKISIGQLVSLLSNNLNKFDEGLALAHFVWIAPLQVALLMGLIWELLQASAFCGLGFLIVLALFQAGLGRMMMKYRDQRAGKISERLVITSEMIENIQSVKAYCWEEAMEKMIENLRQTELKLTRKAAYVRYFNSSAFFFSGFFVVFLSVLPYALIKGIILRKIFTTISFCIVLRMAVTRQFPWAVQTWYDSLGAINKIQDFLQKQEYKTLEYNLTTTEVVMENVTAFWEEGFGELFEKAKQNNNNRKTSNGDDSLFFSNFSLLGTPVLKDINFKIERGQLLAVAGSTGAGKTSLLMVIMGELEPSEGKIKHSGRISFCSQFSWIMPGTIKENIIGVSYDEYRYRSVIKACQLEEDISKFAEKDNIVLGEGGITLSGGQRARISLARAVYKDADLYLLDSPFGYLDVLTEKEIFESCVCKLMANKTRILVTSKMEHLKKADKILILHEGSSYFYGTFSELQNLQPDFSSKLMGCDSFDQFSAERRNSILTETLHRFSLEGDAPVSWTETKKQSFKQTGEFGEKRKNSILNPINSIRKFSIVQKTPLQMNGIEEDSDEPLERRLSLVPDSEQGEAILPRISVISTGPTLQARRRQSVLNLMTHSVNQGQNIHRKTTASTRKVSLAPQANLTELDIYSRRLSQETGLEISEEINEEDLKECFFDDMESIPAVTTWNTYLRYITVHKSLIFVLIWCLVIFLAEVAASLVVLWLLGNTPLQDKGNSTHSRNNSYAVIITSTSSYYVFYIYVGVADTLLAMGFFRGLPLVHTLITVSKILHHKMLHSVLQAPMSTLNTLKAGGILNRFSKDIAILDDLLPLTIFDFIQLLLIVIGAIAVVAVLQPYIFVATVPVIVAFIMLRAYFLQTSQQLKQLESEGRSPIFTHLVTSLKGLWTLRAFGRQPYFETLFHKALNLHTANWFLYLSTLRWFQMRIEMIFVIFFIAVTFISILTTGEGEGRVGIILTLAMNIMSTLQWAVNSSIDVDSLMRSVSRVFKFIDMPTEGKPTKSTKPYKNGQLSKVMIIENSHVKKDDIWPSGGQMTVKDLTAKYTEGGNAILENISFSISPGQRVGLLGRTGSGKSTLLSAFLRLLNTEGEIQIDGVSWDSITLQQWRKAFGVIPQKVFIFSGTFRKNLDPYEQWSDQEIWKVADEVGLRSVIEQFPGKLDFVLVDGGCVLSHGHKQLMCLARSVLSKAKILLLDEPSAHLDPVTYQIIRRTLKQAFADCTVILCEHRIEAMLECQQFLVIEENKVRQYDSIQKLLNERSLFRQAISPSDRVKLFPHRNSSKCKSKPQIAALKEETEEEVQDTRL

- Smiles: "COc1ccc2c(c1)O[C@H](c1ccc(OC)c(OC)c1)C[C@@H]2NC(=O)C1(c2ccc3c(c2)OC(F)(F)O3)CC1"
  EC50: "> 3 µM"

* * *

target: UniProt P49759; assay: Affinity On-target Cellular interaction (NanoBRET assay (HEK293T cells)) EUB0000705a CLK1
pIC50: −log10 of the molar value.
Property Label: pIC50

- Compound: "CN1CCN(C(=O)C(C)(C)c2ccc(C(=O)Nc3cn4cc(-c5cc(C(C)(C)C)cc(C(C)(C)C)c5)ccc4n3)cc2)CC1 [T3-CLK-N]"
  Result: "< 5.00"

* * *

molecular target: Protein AF-9 (Homo sapiens, UniProt P42568); test: Affinity On-target Cellular interaction (NanoBRET assay (HEK293T cells)) EUB0000732a MLLT3; design: mode of action Negative control for PFI-6, recommended concentration 1 uM
pIC50: −log10 of the molar value.

- Smiles: "CN(C)C(=O)c1ccc(-c2cc(C(=O)N(C)C3CCCC3)no2)cc1O"
  pIC50: "< 4.52"

* * *

target: Transient receptor potential cation channel subfamily A member 1 (Homo sapiens); assay: Affinity On-target Cellular interaction (Electrophysiological assay (inhibition of AITC (allylthiocyanate, 100 µmol/L)-evoked currents in HEK293F cells transiently overexpressing hTRPA1)) EUB0000308b TRPA1
Sequence (O75762 whole entry): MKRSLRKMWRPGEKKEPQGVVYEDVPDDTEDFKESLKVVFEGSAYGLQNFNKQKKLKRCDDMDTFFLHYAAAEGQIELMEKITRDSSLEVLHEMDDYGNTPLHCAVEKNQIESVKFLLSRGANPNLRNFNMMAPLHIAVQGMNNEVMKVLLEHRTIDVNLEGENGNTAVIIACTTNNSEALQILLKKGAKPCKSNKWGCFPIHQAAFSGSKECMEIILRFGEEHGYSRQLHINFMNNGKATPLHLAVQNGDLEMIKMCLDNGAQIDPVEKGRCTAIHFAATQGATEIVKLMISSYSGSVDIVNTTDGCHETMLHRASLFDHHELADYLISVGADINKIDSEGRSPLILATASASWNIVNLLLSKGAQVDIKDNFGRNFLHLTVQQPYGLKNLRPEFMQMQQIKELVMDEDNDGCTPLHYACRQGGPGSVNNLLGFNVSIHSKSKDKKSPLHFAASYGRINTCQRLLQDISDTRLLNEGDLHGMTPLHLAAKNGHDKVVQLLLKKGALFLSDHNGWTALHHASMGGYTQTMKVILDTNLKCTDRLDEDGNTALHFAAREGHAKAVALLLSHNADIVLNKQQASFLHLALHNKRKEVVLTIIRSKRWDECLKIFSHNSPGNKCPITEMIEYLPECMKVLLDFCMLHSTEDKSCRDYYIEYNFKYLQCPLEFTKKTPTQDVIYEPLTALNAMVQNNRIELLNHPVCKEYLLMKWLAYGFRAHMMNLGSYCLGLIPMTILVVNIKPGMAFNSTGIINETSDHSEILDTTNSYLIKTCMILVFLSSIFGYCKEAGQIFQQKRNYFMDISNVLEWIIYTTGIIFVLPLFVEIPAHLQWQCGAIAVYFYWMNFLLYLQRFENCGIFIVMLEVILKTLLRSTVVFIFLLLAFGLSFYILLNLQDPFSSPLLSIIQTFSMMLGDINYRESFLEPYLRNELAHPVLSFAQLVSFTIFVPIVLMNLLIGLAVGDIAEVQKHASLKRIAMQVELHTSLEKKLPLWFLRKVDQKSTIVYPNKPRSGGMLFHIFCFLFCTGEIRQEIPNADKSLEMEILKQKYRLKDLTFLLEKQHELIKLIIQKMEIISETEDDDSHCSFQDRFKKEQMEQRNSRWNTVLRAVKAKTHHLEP
pIC50: −log10 of the molar value.

- Smiles: "Clc1cccc(-c2nnnn2Cc2cccnc2)c1Cl"
  pIC50: 7.29

* * *

biological target: CREB-binding protein (Homo sapiens); assay: Affinity On-target Cellular interaction (NanoBRET assay (HEK293T cells)) EUB0000195c CREBBP
pIC50: −log10 of the molar value.
Property Label: pIC50

- Smiles: "CCC(=O)N1CCOc2c(cc(-c3ccc(OC)c(OC)c3)cc2OC[C@H]2CCCN(C)C2)C1"
  Property Label: "pIC50"
  Number: 6.22

* * *

target: UniProtKB Q9BXF3; experiment: Affinity On-target Cellular interaction (NanoBRET assay (dose-dependent displacement from histone H3.3 in HEK293T cells)) EUB0000201c CECR2
Sequence (Q9BXF3 whole entry): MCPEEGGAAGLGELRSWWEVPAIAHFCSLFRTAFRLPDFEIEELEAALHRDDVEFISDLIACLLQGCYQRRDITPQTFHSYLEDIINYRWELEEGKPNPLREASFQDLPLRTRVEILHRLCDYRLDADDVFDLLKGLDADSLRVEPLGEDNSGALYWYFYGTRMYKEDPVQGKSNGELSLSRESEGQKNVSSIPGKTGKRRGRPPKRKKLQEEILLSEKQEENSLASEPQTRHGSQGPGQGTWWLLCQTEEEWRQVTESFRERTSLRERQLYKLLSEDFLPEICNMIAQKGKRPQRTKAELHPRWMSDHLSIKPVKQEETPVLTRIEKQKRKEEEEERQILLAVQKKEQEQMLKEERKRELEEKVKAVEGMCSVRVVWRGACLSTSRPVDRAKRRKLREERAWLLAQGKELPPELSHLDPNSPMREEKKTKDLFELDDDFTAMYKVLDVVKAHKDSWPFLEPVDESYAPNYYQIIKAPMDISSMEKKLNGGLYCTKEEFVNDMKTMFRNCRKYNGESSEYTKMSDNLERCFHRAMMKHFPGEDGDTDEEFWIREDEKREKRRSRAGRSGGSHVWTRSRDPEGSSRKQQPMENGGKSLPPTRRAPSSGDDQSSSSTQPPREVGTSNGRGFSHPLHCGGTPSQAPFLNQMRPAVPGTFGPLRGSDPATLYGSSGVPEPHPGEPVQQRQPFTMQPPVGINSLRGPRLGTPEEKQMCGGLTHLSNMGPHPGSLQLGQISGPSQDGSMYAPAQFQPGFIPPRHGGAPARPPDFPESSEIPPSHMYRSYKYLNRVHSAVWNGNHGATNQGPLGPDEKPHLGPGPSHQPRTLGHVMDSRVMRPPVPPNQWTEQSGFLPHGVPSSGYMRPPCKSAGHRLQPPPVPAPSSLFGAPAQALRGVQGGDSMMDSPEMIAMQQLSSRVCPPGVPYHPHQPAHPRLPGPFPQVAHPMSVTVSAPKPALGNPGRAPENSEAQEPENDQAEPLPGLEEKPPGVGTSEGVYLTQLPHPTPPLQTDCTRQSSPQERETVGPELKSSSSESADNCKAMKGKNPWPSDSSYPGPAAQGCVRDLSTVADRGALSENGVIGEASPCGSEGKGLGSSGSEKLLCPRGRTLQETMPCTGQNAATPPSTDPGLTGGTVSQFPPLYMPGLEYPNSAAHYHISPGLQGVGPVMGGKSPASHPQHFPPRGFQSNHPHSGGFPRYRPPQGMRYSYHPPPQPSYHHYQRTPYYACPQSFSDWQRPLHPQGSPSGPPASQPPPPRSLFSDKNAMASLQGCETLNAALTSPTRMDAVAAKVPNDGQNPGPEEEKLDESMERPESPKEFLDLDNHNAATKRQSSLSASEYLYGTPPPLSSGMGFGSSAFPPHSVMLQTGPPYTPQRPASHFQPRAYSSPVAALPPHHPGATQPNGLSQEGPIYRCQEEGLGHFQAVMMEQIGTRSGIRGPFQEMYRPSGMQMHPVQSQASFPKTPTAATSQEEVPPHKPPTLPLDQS
Property Label: IC50 (nM)

- Smiles: "CCCS(=O)(=O)c1nc(NC2CC2)cc(-c2ccc3c(ccn3C3CC(C)(C)NC(C)(C)C3)c2)n1"
  Number: 255

* * *

molecular target: Dual specificity protein kinase CLK1 (Homo sapiens, UniProt P49759); assay: Affinity On-target Cellular interaction (NanoBRET assay (HEK293T cells)) EUB0000321b CLK1; set-up: mode of action Inhibitor, recommended concentration 100 nM
pIC50: −log10 of the molar value.

- Smiles: "CN1CCN(C(=O)C(C)(C)c2ccc(C(=O)Nc3cn4cc(-c5ccncc5)ccc4n3)cc2)CC1"
  Target Of Assay: "Dual specificity protein kinase CLK1 (Homo sapiens, UniProt P49759)"
  pIC50: 8.40

* * *

assay: Affinity On-target Cellular interaction (Cellular human mast cell degranulation assay) EUB0000714a SYK
pIC50: −log10 of the molar value.
Property Label: pIC50

- Compound: "Cc1cc(Nc2nccc(C)n2)cc(-c2cnc([C@@]3(O)CC[C@H](C(=O)O)C(C)(C)C3)s2)c1 [MRL-SYKi]"
  Property Label: "pIC50"
  Number: 7.42

* * *

molecular target: Mitogen-activated protein kinase 1 (Homo sapiens, UniProt P28482); assay: Affinity On-target Cellular interaction (Cellular assay (inhibition of RSK phosphorylation, A375SM cells)) EUB0000700a MAPK1
pIC50: −log10 of the molar value.

- Smiles: "C[C@H](NC(=O)Nc1cc2[nH]ncc2c(CO)n1)c1ccccn1"
  pIC50: "< 5.00"

* * *

biological target: Dual specificity protein kinase CLK1 (Homo sapiens, UniProt P49759); assay: Affinity On-target Cellular interaction (NanoBRET assay (HEK293T cells)) EUB0000724a CLK1; set-up: mode of action Inhibitor, recommended concentration 1 uM

- Smiles: "COc1cc(Nc2nccc(-c3cnn4nc(OC)ccc34)n2)cc(C(F)(F)F)c1"
  Target Of Assay: "Dual specificity protein kinase CLK1 (Homo sapiens, UniProt P49759)"
  Unit String: "nM"
  IC50: 165

* * *

molecular target: Leucine-rich repeat serine/threonine-protein kinase 2 (Homo sapiens); test: Affinity On-target Cellular interaction (Cellular assay (LRRK2 phosphorylation)) EUB0000629a LRRK2
pIC50: −log10 of the molar value.

- Smiles: "CNc1nc(Nc2cnn([C@H]3CCN(C4COC4)C[C@@H]3F)c2Cl)ncc1C(F)(F)F"
  pIC50: 7.72

* * *

molecular target: Histone acetyltransferase KAT2B (Homo sapiens, UniProt Q92831); test: Affinity On-target Cellular interaction (Competing pull-down assay (full-length PCAF from cell lysates using immobilized L-Moses)) EUB0000218c KAT2B

- Smiles: "Cc1nnc2c3ccccc3c(N[C@@H](C)[C@H](c3ccccc3)N(C)C)nn12"
  IC50 / nM: 660

* * *

Target: Endothelin receptor type B (Homo sapiens, UniProt P24530)
Sequence (P24530 whole entry): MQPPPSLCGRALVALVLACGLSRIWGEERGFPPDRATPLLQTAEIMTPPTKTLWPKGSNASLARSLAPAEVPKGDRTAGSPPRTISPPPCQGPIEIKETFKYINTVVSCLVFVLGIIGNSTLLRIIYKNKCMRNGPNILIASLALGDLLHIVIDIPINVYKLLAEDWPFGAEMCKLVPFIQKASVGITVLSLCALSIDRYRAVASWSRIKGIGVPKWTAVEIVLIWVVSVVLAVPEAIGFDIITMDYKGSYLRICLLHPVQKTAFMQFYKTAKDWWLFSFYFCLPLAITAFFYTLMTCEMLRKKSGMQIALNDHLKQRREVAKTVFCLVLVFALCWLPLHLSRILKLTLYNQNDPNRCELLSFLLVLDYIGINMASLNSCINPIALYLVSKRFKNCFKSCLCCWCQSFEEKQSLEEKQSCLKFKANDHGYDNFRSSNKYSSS
Assay: Affinity On-target Cellular interaction (Cellular functional assay (antagonist effect, Eurofins)) EUB0000339a EDNRB
pIC50: −log10 of the molar value.
Property Label: pIC50

- Smiles: "CCCOc1ccc([C@@H]2[C@@H](C(=O)O)[C@H](c3ccc4c(c3)OCO4)CN2CC(=O)Nc2c(CC)cccc2CC)cc1"
  Result: "< 5.00"

* * *

target: RAC-alpha serine/threonine-protein kinase (Homo sapiens, UniProt P31749); assay: Affinity On-target Cellular interaction (NanoBRET assay (HEK293T cells)) EUB0000721a AKT1
Sequence (P31749 whole entry): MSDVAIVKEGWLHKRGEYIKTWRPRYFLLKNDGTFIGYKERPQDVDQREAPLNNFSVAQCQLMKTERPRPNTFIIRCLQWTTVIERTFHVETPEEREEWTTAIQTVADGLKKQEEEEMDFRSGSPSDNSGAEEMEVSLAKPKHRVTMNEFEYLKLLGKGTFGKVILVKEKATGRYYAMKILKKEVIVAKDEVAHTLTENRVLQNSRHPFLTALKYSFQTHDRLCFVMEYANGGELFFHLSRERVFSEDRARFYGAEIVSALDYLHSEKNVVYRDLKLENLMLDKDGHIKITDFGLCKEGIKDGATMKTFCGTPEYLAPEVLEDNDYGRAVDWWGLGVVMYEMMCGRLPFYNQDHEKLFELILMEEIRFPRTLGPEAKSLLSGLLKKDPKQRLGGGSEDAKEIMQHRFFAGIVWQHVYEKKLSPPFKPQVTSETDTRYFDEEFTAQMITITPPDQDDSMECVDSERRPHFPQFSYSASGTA
pIC50: −log10 of the molar value.
Property Label: pIC50

- Smiles: "C=CC(=O)Nc1ccc2[nH]c(=O)n(C3CCN(C(=O)c4ccc(-c5nc6cc[nH]c(=O)c6cc5-c5ccccc5)cc4)CC3)c2c1"
  Property Label: "pIC50"
  Number: 5.72
